Experiment notes: Absorption and emission properties of HBR-binding PYP variants in presence of HBR
Type: physicochemical
Test parameters: variant with HBR, PBS pH 7.4
Please go through the items and note down their λem.

Examples with their reported λem follow.
Molecule | λem
Clone 2: fluorescent HBR-binding PYP variant, SEQ ID NO: 2, residues 94-101 WLIPTLPQ (protein, Functional derivative of SEQ ID NO: 48 - Clone 2) MEHVAFGSEDIENTLAKMDDGQLDGLAFGAIQLDGDGNILQYNAAEGDITGRDPKQVIGKNFFKDVAPGTDSPEFYGKFKEGVASGNLNTMFEWLIPTLPQPTKVKVHMKKALSGDSYWVFVKRV | 540 nm
Clone 6: fluorescent HBR-binding PYP variant, SEQ ID NO: 6, residues 94-101 WLIPTRNA (protein, Functional derivative of SEQ ID NO: 48 - Clone 6) MEHVAFGSEDIENTLAKMDDGQLDGLAFGAIQLDGDGNILQYNAAEGDITGRDPKQVIGKNFFKDVAPGTDSPEFYGKFKEGVASGNLNTMFEWLIPTRNAPTKVKVHMKKALSGDSYWVFVKRV | 539 nm
Clone 3: best fluorescent HBR-binding PYP variant, SEQ ID NO: 3, residues 94-101 WMIPTSRG (protein, Functional derivative of SEQ ID NO: 48 - Clone 3) MEHVAFGSEDIENTLAKMDDGQLDGLAFGAIQLDGDGNILQYNAAEGDITGRDPKQVIGKNFFKDVAPGTDSPEFYGKFKEGVASGNLNTMFEWMIPTSRGPTKVKVHMKKALSGDSYWVFVKRV | 542 nm

Below: the item to evaluate.
λem reported for this molecule Clone 4: fluorescent HBR-binding PYP variant, SEQ ID NO: 4, residues 94-101 WDIPTNPE (protein, Functional derivative of SEQ ID NO: 48 - Clone 4) MEHVAFGSEDIENTLAKMDDGQLDGLAFGAIQLDGDGNILQYNAAEGDITGRDPKQVIGKNFFKDVAPGTDSPEFYGKFKEGVASGNLNTMFEWDIPTNPEPTKVKVHMKKALSGDSYWVFVKRV : 541 nm
